Test: Stability in simulated gastric fluid after 150 mins
Assay type: ADME
Conditions: read-out: Stability
Experimental Endpoint: remaining at 2.5 h (%)
Just the number in %, nothing appended.

Query :: Recorded remaining at 2.5 h for O=c1ccn(CCCCNC(c2ccccc2)(c2ccccc2)c2ccccc2)c(=O)[nH]1 , please?
Result :: 94

* * *

Molecular target: dUTP pyrophosphatase (Plasmodium falciparum 3D7) (UniProt Q8II92)
Sequence (Q8II92 as listed by the source): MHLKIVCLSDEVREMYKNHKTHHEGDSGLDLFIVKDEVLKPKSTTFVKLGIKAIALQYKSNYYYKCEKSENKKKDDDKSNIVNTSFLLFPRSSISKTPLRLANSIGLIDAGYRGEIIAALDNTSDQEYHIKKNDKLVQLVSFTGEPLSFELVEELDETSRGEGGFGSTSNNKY
Assay: Selectivity index, human dUTPase/Plasmodium falciparum dUTPase
Mark each entry rule met if its Selectivity index sits below 4, and rule not met for all others.

Query :: Does O=c1ccn(CCCCCCO[Si](c2ccccc2)(c2ccccc2)c2ccccc2)c(=O)[nH]1 have Selectivity index strictly under 4?
Result :: rule not met

Query :: Does O=c1ccn(CCCO[Si](c2ccccc2)(c2ccccc2)c2ccccc2)c(=O)[nH]1 have Selectivity index strictly under 4?
Result :: rule not met

Query :: Does O=c1ccn(CCCCCOC(c2ccccc2)(c2ccccc2)c2ccccc2)c(=O)[nH]1 have Selectivity index strictly under 4?
Result :: rule not met

Query :: Does O=C(OCCOCn1ccc(=O)[nH]c1=O)c1ccccc1 have Selectivity index strictly under 4?
Result :: rule met

Query :: Does CC(C)(C)[Si](C)(C)OCCCn1ccc(=O)[nH]c1=O have Selectivity index strictly under 4?
Result :: rule met

Query :: Does O=c1ccn(CCCNC(c2ccccc2)(c2ccccc2)c2ccccc2)c(=O)[nH]1 have Selectivity index strictly under 4?
Result :: rule not met

Query :: Does O=c1ccn(CCCCCCNC(c2ccccc2)(c2ccccc2)c2ccccc2)c(=O)[nH]1 have Selectivity index strictly under 4?
Result :: rule not met

Query :: Does O=c1ccn(CCCCO[Si](c2ccccc2)(c2ccccc2)c2ccccc2)c(=O)[nH]1 have Selectivity index strictly under 4?
Result :: rule not met

Query :: Does O=c1ccn(C/C=C/COC(c2ccccc2)(c2ccccc2)c2ccccc2)c(=O)[nH]1 have Selectivity index strictly under 4?
Result :: rule not met

Query :: Does O=C(OCCCCn1ccc(=O)[nH]c1=O)c1ccccc1 have Selectivity index strictly under 4?
Result :: rule met

Query :: Does O=c1ccn(COCCOC(c2ccccc2)(c2ccccc2)c2ccccc2)c(=O)[nH]1 have Selectivity index strictly under 4?
Result :: rule not met

Query :: Does O=c1ccn(CCCCCCOC(c2ccccc2)(c2ccccc2)c2ccccc2)c(=O)[nH]1 have Selectivity index strictly under 4?
Result :: rule not met

Query :: Does CC(C)(C)[Si](C)(C)OCCOCn1ccc(=O)[nH]c1=O have Selectivity index strictly under 4?
Result :: rule met

Query :: Does O=c1ccn(CCCCCO[Si](c2ccccc2)(c2ccccc2)c2ccccc2)c(=O)[nH]1 have Selectivity index strictly under 4?
Result :: rule not met

Query :: Does CC(C)(C)OC(=O)NCCCCn1ccc(=O)[nH]c1=O have Selectivity index strictly under 4?
Result :: rule not met

* * *

Test: Stability in simulated gastric fluid after 5 mins
Assay type: ADME
Settings: read-out: Stability
Experimental Endpoint: remaining at 5 min
Please format your answer as a value with the unit trailing.

Query :: Recorded remaining at 5 min for O=c1ccn(CCCCOC(c2ccccc2)(c2ccccc2)c2ccccc2)c(=O)[nH]1 , please?
Result :: 2%

* * *

For each entry below, report its pKi value.
Biological target: Deoxyuridine 5'-triphosphate nucleotidohydrolase, mitochondrial (Homo sapiens, UniProt P33316)
Sequence (P33316 whole entry): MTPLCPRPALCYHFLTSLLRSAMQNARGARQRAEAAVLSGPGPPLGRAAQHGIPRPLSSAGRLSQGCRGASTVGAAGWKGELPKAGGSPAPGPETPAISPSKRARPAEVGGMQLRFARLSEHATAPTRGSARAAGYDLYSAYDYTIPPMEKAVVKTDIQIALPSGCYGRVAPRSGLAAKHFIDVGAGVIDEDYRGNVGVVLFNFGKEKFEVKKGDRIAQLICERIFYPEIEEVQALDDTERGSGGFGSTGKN
Assay: Inhibition of human recombinant dUTPase
Convention used: pKi is expressed as -log10 of the molar concentration.

Query :: Recorded pKi for CC(C)(C)[Si](C)(C)OCCCn1ccc(=O)[nH]c1=O , please?
Result :: 4.14

Query :: Recorded pKi for O=c1ccn(CC(CCO)COC(c2ccccc2)(c2ccccc2)c2ccccc2)c(=O)[nH]1 (centres undefined) , please?
Result :: 4.68

Query :: Recorded pKi for O=C(OCCCn1ccc(=O)[nH]c1=O)c1ccccc1 , please?
Result :: 3.05

Query :: Recorded pKi for CC(C)(C)[Si](C)(C)OCCOCn1ccc(=O)[nH]c1=O , please?
Result :: 4.20

Query :: Recorded pKi for O=c1ccn(C/C=C\COC(c2ccccc2)(c2ccccc2)c2ccccc2)c(=O)[nH]1 , please?
Result :: 5.28

Query :: Recorded pKi for CC(=O)OCC(CCn1ccc(=O)[nH]c1=O)CNC(c1ccccc1)(c1ccccc1)c1ccccc1 (centres undefined) , please?
Result :: 4.13

Query :: Recorded pKi for O=c1ccn([C@H]2C[C@H](F)[C@@H](COC(c3ccccc3)(c3ccccc3)c3ccccc3)O2)c(=O)[nH]1 , please?
Result :: 3.34

Query :: Recorded pKi for O=c1ccn(CCCCCCO[Si](c2ccccc2)(c2ccccc2)c2ccccc2)c(=O)[nH]1 , please?
Result :: 3.42

Query :: Recorded pKi for O=c1ccn(CCCOC(c2ccccc2)(c2ccccc2)c2ccccc2)c(=O)[nH]1 , please?
Result :: 3.50

Query :: Recorded pKi for O=c1ccn(CC(CO)CCOC(c2ccccc2)(c2ccccc2)c2ccccc2)c(=O)[nH]1 (centres undefined) , please?
Result :: 3.59

Query :: Recorded pKi for O=c1ccn([C@H]2C[C@H](O)[C@@H](CNC(c3ccccc3)(c3ccccc3)c3ccccc3)O2)c(=O)[nH]1 , please?
Result :: 4.34

Query :: Recorded pKi for O=c1ccn(CCCO[Si](c2ccccc2)(c2ccccc2)c2ccccc2)c(=O)[nH]1 , please?
Result :: 4.60

Query :: Recorded pKi for O=c1ccn(COCCOC(c2ccccc2)(c2ccccc2)c2ccccc2)c(=O)[nH]1 , please?
Result :: 4.77

Query :: Recorded pKi for O=c1ccn([C@H]2C[C@H](O)[C@@H](COC(c3ccccc3)(c3ccccc3)c3ccccc3)O2)c(=O)[nH]1 , please?
Result :: 4.74

Query :: Recorded pKi for O=C(OCCOCn1ccc(=O)[nH]c1=O)c1ccccc1 , please?
Result :: 3.51

Query :: Recorded pKi for O=c1ccn(CCCNC(c2ccccc2)(c2ccccc2)c2ccccc2)c(=O)[nH]1 , please?
Result :: 5.85

Query :: Recorded pKi for O=c1ccn(CCCCCCOC(c2ccccc2)(c2ccccc2)c2ccccc2)c(=O)[nH]1 , please?
Result :: 3.32

Query :: Recorded pKi for O=c1ccn(CCC(CO)CNC(c2ccccc2)(c2ccccc2)c2ccccc2)c(=O)[nH]1 (centres undefined) , please?
Result :: 5.24

Query :: Recorded pKi for O=c1ccn(CCCCCCO)c(=O)[nH]1 , please?
Result :: 3.20

Query :: Recorded pKi for O=C(OCCCCn1ccc(=O)[nH]c1=O)c1ccccc1 , please?
Result :: 3.30

* * *

Assay: Stability in simulated gastric fluid after 0.2 mins
Type: ADME
Details: read-out: Stability
For each entry below, report its remaining at 12 s value.

Query :: Recorded remaining at 12 s for O=c1ccn(CCCCO[Si](c2ccccc2)(c2ccccc2)c2ccccc2)c(=O)[nH]1 , please?
Result :: < 2%

Query :: Recorded remaining at 12 s for O=c1ccn(CCCCCCO[Si](c2ccccc2)(c2ccccc2)c2ccccc2)c(=O)[nH]1 , please?
Result :: < 2%

* * *

For each entry below, report its Ki value.
Just the number in µM, nothing appended.

Query :: Hi! What's the reported Ki for O=c1ccn(CCCOC(c2ccccc2)(c2ccccc2)c2ccccc2)c(=O)[nH]1 on dUTP pyrophosphatase (Plasmodium falciparum 3D7, UniProt Q8II92)?
Result :: 87

Query :: Hi! What's the reported Ki for CC(=O)OCC(CCn1ccc(=O)[nH]c1=O)CNC(c1ccccc1)(c1ccccc1)c1ccccc1 (stereo not drawn) on dUTP pyrophosphatase (Plasmodium falciparum 3D7, UniProt Q8II92)?
Result :: 1.3

Query :: Hi! What's the reported Ki for O=C(OCCCCn1ccc(=O)[nH]c1=O)c1ccccc1 on dUTP pyrophosphatase (Plasmodium falciparum 3D7, UniProt Q8II92)?
Result :: 224

Query :: Hi! What's the reported Ki for CC(C)(C)[Si](C)(C)OCCCn1ccc(=O)[nH]c1=O on dUTP pyrophosphatase (Plasmodium falciparum 3D7, UniProt Q8II92)?
Result :: 73

Query :: Hi! What's the reported Ki for O=c1ccn(CCCCCO[Si](c2ccccc2)(c2ccccc2)c2ccccc2)c(=O)[nH]1 on dUTP pyrophosphatase (Plasmodium falciparum 3D7, UniProt Q8II92)?
Result :: 3.8

Query :: Hi! What's the reported Ki for O=C(OCCCn1ccc(=O)[nH]c1=O)c1ccccc1 on dUTP pyrophosphatase (Plasmodium falciparum 3D7, UniProt Q8II92)?
Result :: 9.2

* * *

For each entry below, report its microsomal CLint value.
Assay: Intrinsic clearance in human liver microsome
Format: ADME
Conditions: liver microsomes
Just the number in µL/min/mg, nothing appended.

Query :: Recorded microsomal CLint for O=c1ccn(CCCCOC(c2ccccc2)(c2ccccc2)c2ccccc2)c(=O)[nH]1 , please?
Result :: 68

Query :: Recorded microsomal CLint for O=c1ccn(COCCOC(c2ccccc2)(c2ccccc2)c2ccccc2)c(=O)[nH]1 , please?
Result :: 96

Query :: Recorded microsomal CLint for O=c1ccn(CCCCNC(c2ccccc2)(c2ccccc2)c2ccccc2)c(=O)[nH]1 , please?
Result :: 64

Query :: Recorded microsomal CLint for O=c1ccn(CCCCO[Si](c2ccccc2)(c2ccccc2)c2ccccc2)c(=O)[nH]1 , please?
Result :: 69

Query :: Recorded microsomal CLint for O=c1ccn(CCCCCCO[Si](c2ccccc2)(c2ccccc2)c2ccccc2)c(=O)[nH]1 , please?
Result :: 35
